From: PubChem BioAssay (NCI)

Test system: PC-3 prostate
Assay: NCI-60 one-dose screen, 48 h (100 = growth as untreated, 0 = no growth, -100 = all killed)
Settings: 10 µM unless noted
Description: Growth inhibition of the PC-3 human tumor cell line is measured as a screen for anti-cancer activity. Cells are grown in 96 well plates and exposed to the test compound for 48 hours. Compounds are tested at a single concentration, which is 10^-5 M for most compounds. The reported endpoint is percent growth (GI% or GIPRCNT), where numbers from 0 - 100% represent growth inhibition, and numbers from -100% - 0 represent cell death. For example, a value of 40 represents 60% growth inhibition. […]
About 83,000 compounds went through this panel and 20% of them were active in at least one assay; those are over-represented in the sample as a whole.

compound	target-entity	growth, %
CC1CC(C)(C)OB(OC(C)CC(C)(C)OB2OC(C)CC(C)(C)O2)O1 (stereo unspecified)	PC-3 prostate	97.5
COc1cc(OC)c(/C=C/c2c3ccccc3cc[n+]2C)c(OC)c1	PC-3 prostate	19.2
CCC(C)(O)Cc1ccc(Cl)cc1 (stereo unspecified)	PC-3 prostate	94.5
CCCCCCCCCCCC[N+]1(CCCCCCCCCCCC)CCCC(C)C1 (stereo unspecified)	PC-3 prostate	-93.7
Oc1c(Cl)cc(Cl)cc1C=NCC1CCC(CN=Cc2cc(Cl)cc(Cl)c2O)CC1 (stereo unspecified)	PC-3 prostate	77.6
c1ccc2sc(SSN3CC4CCC(CC4)C3)nc2c1	PC-3 prostate	100
O=C(C[P+](c1ccccc1)(c1ccccc1)c1ccccc1)c1ccccc1	PC-3 prostate	74.7
O=[N+]([O-])c1ccc(C2N(Cc3ccc(Cl)cc3)CCN2Cc2ccc(Cl)cc2)cc1	PC-3 prostate	82.3
O=[N+]([O-])c1ccc2c(c1)Cc1ccccc1-2	PC-3 prostate	96.7
CCC[CH2][Sn]1([CH2]CCC)[O]C2C(CO)OC(n3ccc(N)nc3=O)C2[O]1 (stereo unspecified)	PC-3 prostate	-11.3
Nc1ccc(-c2ccc(N)c(S(=O)(=O)O)c2)cc1S(=O)(=O)O	PC-3 prostate	101

---

Tested on: NCI-H23 lung
Experiment: NCI-60 one-dose screen, 48 h
Conditions: 10 µM unless noted
This is part of a sample that, as a whole, favours compounds with a hit. Of some 83,000 tested, about 20% had one in any assay. Calls of active or inactive are those of the source. Rule for the calls: active = growth percent below 10; inactive = the rest.
Labels: 1 (active), -1 (inactive)

molecule	assigned-category
Oc1cc(Cl)ccc1Cc1ccc(Cl)cc1O	-1
CCN(CC)CCNc1ccc([N+](=O)[O-])c2sc3ccccc3c(=O)c12	-1
NC(=Nc1nc(-c2ccccn2)cc2ccccc12)c1ccccn1	1
Cc1nc([N+](=O)[O-])c(Sc2nncc(-c3ccccc3)n2)n1C	-1
COc1ccc(C(Cn2ccnc2)Sc2ccc(Cl)c(Cl)c2)cc1 (stereo unspecified)	-1
CCC[CH2][Sn]1([CH2]CCC)[O]C2C(CO)OC(n3ccc(N)nc3=O)C2[O]1 (stereo unspecified)	1

---

Tested on: COLO 205 colon
Assay: NCI-60 one-dose screen, 48 h (100 = growth as untreated, 0 = no growth, -100 = all killed)
Conditions: 10 µM unless noted
Experimental: Cells are grown in 96 well plates and exposed to the test compound for 48 hours. Compounds are tested at a single concentration, which is 10^-5 M for most compounds. The reported endpoint is percent growth (GI% or GIPRCNT), where numbers from 0 - 100% represent growth inhibition, and numbers from -100% - 0 represent cell death. For example, a value of 40 represents 60% growth inhibition. A value of 0 means no net growth occurred over the course of the experiment. […]
The panel holds about 83,000 compounds, 20% with a hit somewhere; the sample as a whole holds those more often.

compound	value-unit	growth
Clc1ccc(-n2ncc3c(NCCCN4CCOCC4)ncnc32)cc1	%	87.4
CC1CC(C)(C)OB(OC(C)CC(C)(C)OB2OC(C)CC(C)(C)O2)O1 (configuration not stated)	%	93.8
Cc1ccc2c(c1)sc(-c1ccc(N(C)C)cc1)[n+]2C	%	-83
CN(C)c1ccc(C(C#N)(c2ccccc2)c2ccc(N(C)C)cc2)cc1	%	45.2
NC(=S)N/N=C\c1nccc2c(C(F)(F)F)cccc12	%	17.8
Cc1ccc(/C=C2\CNC/C(=C\c3ccc(C)cc3)C2=O)cc1	%	-70.5
CCOC(=O)c1c(C)[nH]c2ccc(O)cc12	%	113
Nc1cc(-c2ccccc2)ccc1O	%	110
CCCCCCCCCCCC[N+]1(CCCCCCCCCCCC)CCCC(C)C1 (configuration not stated)	%	-98.8
C[n+]1ccccc1C[n+]1ccccc1	%	114
Oc1ccc(Br)cc1Sc1cc(Br)ccc1O	%	113
O=C(c1ccccc1)c1cc2ccccc2oc1=O	%	119

---

System: ACHN renal
Experiment: NCI-60 one-dose screen, 48 h (100 = growth as untreated, 0 = no growth, -100 = all killed)
Conditions: 10 µM unless noted
The panel holds about 83,000 compounds, 20% with a hit somewhere; the sample as a whole holds those more often.

compound	growth (%)
O=C1C=CC(=O)N1c1ccccc1	-37.3
O=[n+]1c2ccccc2n([O-])c2cc(Cl)ccc21	20.7
OC(c1cc(-c2ccc(Cl)cc2)nc2c(Cl)cccc12)C1CCCCN1 (configuration not stated)	-65.3
C[n+]1ccccc1C[n+]1ccccc1	112
Cc1ccc(NC2=CC(=O)C(=O)c3ccccc32)cc1	21.9
Oc1ccc(Nc2ccc3ccccc3c2)cc1	18.5
c1ccc(-c2cccc(-c3ccccn3)n2)nc1	14

---

System: OVCAR-3 ovarian
Assay: NCI-60 one-dose screen, 48 h
Settings: 10 µM unless noted
About 83,000 compounds went through this panel and 20% of them were active in at least one assay; those are over-represented in the sample as a whole. Activity calls are given as the source filed them. How the source made its calls: active means growth percent below 10; inactive means the rest.
Possible outcomes: yes = active, no = inactive

molecule	assigned-category
CC(C)=CCCC(C)C1=C(O)C(=O)C(C)=CC1=O (stereo unspecified)	yes
Cc1nn(CCO)c(C)c1N=[N+]([O-])c1c(C)nn(CCO)c1C	yes
CC1CC(C)(C)OB(OC(C)CC(C)(C)OB2OC(C)CC(C)(C)O2)O1 (stereo unspecified)	no
O=C1/C(=C/c2ccccc2)CCC/C1=C\c1ccccc1	no
CCCCCCCCCCCCN1C(C)=CS/C1=C\C=C\c1scc(C)[n+]1CCCCCCCCCCCC	no
Cc1ccc(Nc2ccc(O)c3c2C(=O)c2c(O)ccc(Nc4ccc(C)cc4)c2C3=O)cc1	no
CC(C)c1ccc(C(=O)OC2CCCC2)cc1	no
CC12CCC(O)CC1=CCC1C2CCC2(C)C3=NN=CC3CC12 (stereo unspecified)	no
CCN(CC)CCNc1ccc([N+](=O)[O-])c2sc3ccccc3c(=O)c12	no
S=C(S)OCN1CCOCC1	no
CC(C)(C)c1ccc(O)c(-c2ccccc2)c1	no

---

Tested on: OVCAR-5 ovarian
Experiment: NCI-60 one-dose screen, 48 h (100 = growth as untreated, 0 = no growth, -100 = all killed)
Details: 10 µM unless noted
Compounds without any hit were thinned out: in the full panel of roughly 83,000, 20% have a hit.

compound	growth, %
Nc1nc(-c2ccccc2)nc(N)c1N=O	96.9
CCCCC(CCc1ccc([N+](=O)[O-])cc1)(C(C)=O)C(=O)OCC (stereo unspecified)	105
COc1ccc(C(Cn2ccnc2)Sc2ccc(Cl)c(Cl)c2)cc1 (stereo unspecified)	91.3
COC(=O)c1nc(=S)[nH]c(C(=O)OC)c1C(=O)c1ccc(Cl)c(Cl)c1	118
N#CC1c2ccccc2C=CN1C(=O)CCCl (stereo unspecified)	108
CCCCC(C=O)(C=C=C(C)C)CC (stereo unspecified)	98.3

---

Tested on: RPMI-8226 leukemia
Experiment: NCI-60 one-dose screen, 48 h (100 = growth as untreated, 0 = no growth, -100 = all killed)
Settings: 10 µM unless noted
Compounds without any hit were thinned out: in the full panel of roughly 83,000, 20% have a hit.
Lab note: compare growth with 50%, writing satisfied if less and not satisfied if equal or more.

compound	assigned-category
CC1C(c2ccccc2)OCCN1C(=S)Nc1ccc(S(=O)(=O)N2CCCCC2)cc1 (configuration not stated)	not satisfied
Oc1ccc2ccccc2c1N=Nc1nccs1	satisfied
CCCCN(CCCC)CCCCCCCCCCO	not satisfied
O=C1C=CC(=O)N1c1cc(Cl)c(Cl)cc1Cl	not satisfied
O=C(OC12CC3CC(CC(C3)C1)C2)c1ccc(NCc2cc(O)ccc2O)cc1	satisfied
CCCCCCCCCCCCNCCCc1ccccc1	satisfied
Cc1ccc(Nc2ccc(O)c3c2C(=O)c2c(O)ccc(Nc4ccc(C)cc4)c2C3=O)cc1	not satisfied
O=C1C=C(Cl)C(=O)c2ccccc21	not satisfied
O=C(/C(Cl)=N/O)c1ccc(-c2ccccc2)cc1	not satisfied
OC(c1cc(-c2ccc(Cl)cc2)nc2c(Cl)cccc12)C1CCCCN1 (configuration not stated)	satisfied
Clc1ccccc1C(c1ccccc1)(c1ccccc1)n1ccnc1	satisfied

---

Tested on: 786-0 renal
Test: NCI-60 one-dose screen, 48 h
Conditions: 10 µM unless noted
About 83,000 compounds went through this panel and 20% of them were active in at least one assay; those are over-represented in the sample as a whole. Active and inactive are the calls of the source. The calls were made as follows: active = growth percent below 10; inactive = the rest.
Labels: label 1 = active, label 0 = inactive

molecule	target-entity	assigned-category
O=C1C=CC(=O)N1c1ccccc1	786-0 renal	label 0
Cc1onc(-c2ccccc2)c1C(=O)N/N=C/c1cc(Cl)cc(Cl)c1O	786-0 renal	label 0
CC(C)c1ccc(Nc2n[nH]c(=S)s2)cc1	786-0 renal	label 0
CCOc1ccc(C(C[N+](=O)[O-])Sc2ccccc2N)cc1 (stereo unspecified)	786-0 renal	label 1
CN(C)c1ccc(/C=C/c2nccc3ccccc23)cc1	786-0 renal	label 0
O=C1/C(=C/c2ccccn2)CCc2ccccc21	786-0 renal	label 0
